# experimentalDetails: High-throughput drug toxicity screening in the BPDCN cell line Gen2.2 (AID 1224824);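 note: cells exposed to compounds for 48 h before reading; 100% = DMSO and 0% = bortezomib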
# testContext: Gen2.2 BPDCN cells; at 45.8 µM (top of the series) unless noted
I'd appreciate it if you marked entries true (1) when cell viability, % of control (lower = more cytotoxic) is lower than 20% and false (0) when it is not.

Some entries whose results are on file:
Answer whether the molecule CC(C)[C@H](CO)Nc1nc(Nc2cccc(Cl)c2)c2ncn(C(C)C)c2n1 has cell viability, % of control (lower = more cytotoxic) strictly less than 20%
true (1)

Now consider CON=C(C(=O)N[C@@H]1C(=O)N2C(C(=O)O)=C(CSC(=O)c3ccco3)CS[C@H]12)c1csc(N)n1 .
true (1)

Now consider CCCCCCCN(CC)CCCC(O)c1ccc(NS(C)(=O)=O)cc1 (centres undefined) .
false (0)

Now consider Nc1ccn(C2CO[C@H](CO)O2)c(=O)n1 (some centres undefined) .
false (0)

Now consider Cc1ccc2nc(NCCN)c3ncc(C)n3c2c1 .
true (1)

Continuing:
Answer whether the molecule CC(=O)O[C@H]1C[C@@H]2CC[C@H]3[C@H]4C[C@H]([N+]5(C)CCCCC5)[C@@H](OC(C)=O)[C@@]4(C)CC[C@@H]3[C@@]2(C)C[C@H]1N1CCCCC1 has cell viability, % of control (lower = more cytotoxic) strictly less than 20%
false (0)

Now consider CCc1ccc(C(=O)Nc2cc(CN3CCN(C)CC3)cc(C(F)(F)F)c2)cc1C#Cc1cnc2ccnn2c1 .
true (1)

Now consider COc1cc(C(C)C)c(Oc2cnc(NC(CO)CO)nc2N)cc1I .
false (0)

Now consider Cc1cncc2cccc(S(=O)(=O)N3CCCN(C(=O)CN)C[C@@H]3C)c12 .
false (0)

Now consider COC(=O)C1C2CC3c4[nH]c5cc(OC)ccc5c4CCN3CC2CC(OC(=O)c2cc(OC)c(OC)c(OC)c2)C1OC (centres undefined) .
false (0)

* * *

# Test system: KB-3-1
# experimentalDetails: Cytotoxic Profiling of Annotated Libraries Using Quantitative High-Throughput Screening (AID 1296008); note: nearly all actives have a fitted effect of over 60% in size
# testContext: Five cell lines viability, CellTiter-Glo ATP luminescence, 48-72 h
Inconclusive results are not listed. The source made the active and inactive calls. The call rests on the fitted dose curve; in most records, active means well fitted inhibition curve with a large enough effect; inconclusive means small, poorly fitted or top-dose-only effect; inactive means flat fitted curve, though single readings scatter.
Assign a class; possible classes are 1 for active, 0 for inactive

Record request — test call for CN1CCCN(C(=O)c2cccc(-c3ccc(C=C4C(=O)Nc5ccc(Cl)cc54)o3)c2)CC1
1

Now consider Oc1ccc([C@@H]2Oc3ccc(O)cc3[C@@H]3CCC[C@@H]32)cc1 .
1

Now consider NC(=NCCCCCCN=C(N)N=C(N)Nc1ccc(Cl)cc1)N=C(N)Nc1ccc(Cl)cc1 .
1

Now consider C=CC[C@@H]1C=C(C)C[C@H](C)C[C@H](OC)[C@H]2O[C@@](O)(C(=O)C(=O)N3CCCC[C@H]3C(=O)O[C@H](C(C)=C[C@@H]3CC[C@H](O)[C@H](OC)C3)[C@@H](C)[C@@H](O)CC1=O)[C@@H](C)C[C@@H]2OC .
0

Now consider CCN(CC)Cc1ccc2cc(COC(=O)Nc3ccc(C(=O)NO)cc3)ccc2c1 .
1

Continuing:
Record request — test call for O=C(Nc1ccc(Oc2ccnc3[nH]ccc23)c(F)c1)c1cccn(-c2ccc(F)cc2)c1=O
0

Now consider Cn1c(Nc2ccc(C(F)(F)F)cc2)nc2cc(Oc3ccnc(-c4ncc(C(F)(F)F)[nH]4)c3)ccc21 .
1

Now consider CC(C)(N)c1ccc(-c2nc3ccccc3nc2-c2ccccc2)cc1 .
1

Now consider OC[C@@H](O)[C@@H](O)[C@H](O)[C@@H](O)CO .
0

Now consider O=C(O)CCCCC(CCSCc1ccccc1)SCc1ccccc1 (stereo not given) .
0

* * *

# experimentalDetails: Quantitative High-Throughput drug screen in 47 multiple myeloma cell lines against the NCATS MIPE library collection: KMS28PE_JCRB cell viability assay (AID 1918983); note: nearly all actives have a fitted effect of over 35% in size; note: potency is the fitted concentration of half-maximal effect
# testContext: KMS28PE multiple myeloma viability, CellTiter-Glo ATP, 48 h; series mostly up to 45.8 µM
Records with an inconclusive call do not appear. The source made the active and inactive calls. Calls follow the shape of the dose curve; as a rule, active = well fitted cell-killing curve with a large enough effect; inconclusive = small, poorly fitted or top-dose-only effect, or effect the other way; inactive = no such curve, though single readings can be large or run the other way. Positions of bridges follow the written chain, without caps; N, C: chain ends. Non-standard residues stand in square brackets, D forms with d. Residues, ends and D or L forms follow the SMILES beside them. ξ: configuration not given here. *: point of attachment. Octanoyl(6-Me) = CCC(C)CCCCC(=O)*; ξThr(3R) = C[C@@H](O)C(N)C(=O)O; dDab = NCC[C@@H](N)C(=O)O; Dab = NCC[C@H](N)C(=O)O
recordedMetric: Potency

Record request: Potency value, item CCC(C)CCCCC(=O)N[C@@H](CCN)C(=O)NC(C(=O)N[C@H](CCN)C(=O)N[C@@H]1CCNC(=O)C([C@@H](C)O)NC(=O)[C@@H](CCN)NC(=O)[C@@H](CCN)NC(=O)[C@@H](CC(C)C)NC(=O)[C@H](Cc2ccccc2)NC(=O)[C@H](CCN)NC1=O)[C@@H](C)O (stereo partly drawn) ({Octanoyl(6-Me)}-[Dab][ξThr(3R)][dDab][dDab][Dab]F[dL][dDab][dDab][ξThr(3R)]; lactam 4-C)
inactive

Now consider CON=C(C(=O)N[C@@H]1C(=O)N2C(C(=O)O)=C(Cn3ccc(=N)n3CCO)CS[C@H]12)c1csc(N)n1 .
inactive

Now consider CC(=O)OCC(=O)[C@@]1(O)CC[C@H]2[C@@H]3CCC4=CC(=O)CC[C@]4(C)[C@@H]3C(=O)C[C@@]21C .
inactive

Now consider CCCc1nc(C(C)(C)O)c(C(=O)O)n1Cc1ccc(-c2ccccc2-c2nn[nH]n2)cc1 .
inactive

Now consider O=C(NC1CC1)c1cccc(-c2ccc3c(NC(=O)C4CC4)n[nH]c3c2)c1 .
10.5 µM (active)

Continuing:
Record request: Potency value, item O=C1NCCc2[nH]c(-c3ccncc3)cc21
4.69 µM (active)

* * *

# Test system: NIH3T3
# experimentalDetails: Cytotoxic Profiling of Annotated Libraries Using Quantitative High-Throughput Screening (AID 1296008); note: nearly all actives have a fitted effect of over 60% in size; note: potency is the fitted concentration of half-maximal effect
# testContext: Five cell lines viability, CellTiter-Glo ATP luminescence, 48-72 h
Records with an inconclusive call do not appear. The source made the active and inactive calls. Calls follow the shape of the dose curve; as a rule, active = well fitted inhibition curve with a large enough effect; inconclusive = small, poorly fitted or top-dose-only effect; inactive = flat fitted curve, though single readings scatter.
recordedMetric: Potency

Some entries whose results are on file:
Record request: Potency value, item CC(C)N(CC[C@H](c1ccccc1)c1cc(CO)ccc1O)C(C)C
inactive

Now consider Cc1cnc(Nc2ccc(N3CCN(C)CC3)cc2)nc1Nc1cccc(S(=O)(=O)NC(C)(C)C)c1 .
4.18 µM (active)

Now consider Nc1ccc(C(=O)Nc2cccc(-c3nc(N4CCOCC4)c4oc5ncccc5c4n3)c2)cn1 .
2.31 µM (active)

Now consider COc1ccc2c(c1OC)C(=O)OC2[C@H]1c2c(cc3c(c2OC)OCO3)CCN1C (stereo not given in full) .
1.05 µM (active)

Now consider CCc1c(O)cc(O)c(C(=O)c2ccc(OCCN3CCOCC3)c(OC)c2)c1CC(=O)N(CCOC)CCOC .
11.8 µM (active)

Now consider O=C(C=CC=Cc1ccc2c(c1)OCO2)N1CCCCC1 .
inactive

Now consider CC1=C(C(=O)Nc2cc3cn[nH]c3cc2F)C(c2ccc(Cl)cc2F)N=C(c2ccnc(Cl)c2)N1 (stereo not given) .
11.8 µM (active)

Now consider CC(C)C[C@H](NC(=O)CNC(=O)c1cc(Cl)ccc1Cl)B1OC(=O)CC(CC(=O)O)(C(=O)O)O1 (stereo not given in full) .
0.833 µM (active)

Provide the reported Potency of each entry below, same order.
1. CCC(C=C[C@@H]1OC(=O)C=C[C@H]1C)=C[C@H](C)CC=CC(C)=C[C@@H](C)C(=O)[C@@H](C)[C@H](O)[C@@H](C)CC(C)=CC(=O)O
2. CNC(=O)c1ccc(Nc2cc(Nc3ccccc3S(=O)(=O)C(C)C)c3cc[nH]c3n2)nc1
3. C[C@H]1C[C@H]2[C@@H]3CCC4=CC(=O)C=C[C@]4(C)[C@@H]3C(=O)C[C@]2(C)[C@@]1(O)C(=O)CO
4. Cc1cc(Nc2ncc3c(n2)N(C)C(=O)N(c2cc(NC(=O)c4cccc(C(F)(F)F)c4)ccc2C)C3)n(C)n1
5. C=CCNc1c(O)cc2c(O)c1C[C@@H](C)C[C@H](OC)[C@@H](O)[C@@H](C)C=C(C)[C@H](OC(N)=O)[C@@H](OC)C=CC=C(C)C(=O)N2
6. CCCCOc1ccc(C(=O)Nc2ccc(F)cc2F)cc1

1: 0.124 µM (active); 2: 2.35 µM (active); 3: inactive; 4: 1.32 µM (active); 5: 0.59 µM (active); 6: inactive

Provide the reported Potency of each entry below, same order.
1. Cn1cnc(=N)c2[nH]cnc21
2. Cn1cc(-c2cnn3c(N)c(Br)c([C@H]4CCCNC4)nc23)cn1
3. C=C1C(=CC=C2CCC[C@]3(C)[C@@H]([C@H](C)CCCC(C)(C)O)CC[C@@H]23)C[C@@H](O)C[C@@H]1O
4. CN[C@@H]1C[C@H]2O[C@@](C)([C@H]1OC)n1c3ccccc3c3c4c(c5c6ccccc6n2c5c31)C(=O)N[C@H]4O
5. COc1cc(OC)c(C=CS(=O)(=O)Cc2ccc(OC)c(NCC(=O)O)c2)c(OC)c1
6. C[C@H](CCC(=O)O)[C@H]1CC[C@H]2[C@@H]3[C@H](O)C[C@@H]4C[C@H](O)CC[C@]4(C)[C@@H]3CC[C@]12C
7. COc1ccc(CCC(=O)c2c(O)cc(O[C@@H]3O[C@H](CO)[C@@H](O)[C@H](O)[C@@H]3O[C@@H]3O[C@@H](C)[C@H](O)[C@@H](O)[C@@H]3O)cc2O)cc1O
8. C#Cc1cccc(Nc2ncnc3cc(OCCOC)c(OCCO)cc23)c1

1: 9.35 µM (active); 2: 0.662 µM (active); 3: 0.0033 µM (active); 4: 0.166 µM (active); 5: 0.105 µM (active); 6: inactive; 7: inactive; 8: 20.9 µM (active)

Provide the reported Potency of each entry below, same order.
1. COC[C@H](NC(=O)c1cnc(C)s1)C(=O)N[C@@H](COC)C(=O)N[C@@H](Cc1ccccc1)C(=O)[C@@]1(C)CO1
2. C[C@@]12C(=O)OC(=O)[C@@]1(C)C1CCC2O1
3. O=c1[nH]c(=O)n([C@H]2C[C@@H](O)[C@@H](CO)O2)cc1F
4. O=C1NCCc2[nH]c(-c3ccncc3)cc21
5. COC(=O)[C@@H]1CC2=CC(=O)CC[C@]2(C)[C@@]23O[C@@H]2C[C@@]2(C)[C@H](CC[C@@]24CCC(=O)O4)[C@@H]13
6. COc1cc(C[C@@H](CO)[C@H](CO)Cc2ccc(O)c(OC)c2)ccc1O
7. CC(C=CC1=C(C)CCCC1(C)C)=CC=CC(C)=CC(=O)Nc1ccc(O)cc1
8. CCS(=O)(=O)Nc1ccc2[nH]c(O)c(C(=Nc3ccc(CN4CCCCC4)cc3)c3ccccc3)c2c1

1. 0.833 µM (active)
2. 13.2 µM (active)
3. 0.0187 µM (active)
4. 23.5 µM (active)
5. inactive
6. inactive
7. 48.1 µM (active)
8. 0.264 µM (active)

All values here come from PubChem BioAssay (NCATS).
